assay: NCI Yeast Anticancer Drug Screen. Data for the mlh1 rad18 strain (AID 175); conditions: S. cerevisiae mlh1 rad18 strain growth inhibition; at 5.0 µM (retest, dose inferred, filed as 0.5)
About 79,000 compounds went through this panel and 15% of them were active in at least one assay; those are over-represented in the sample as a whole. Activity calls are given as the source filed them. Rule as the data show it: active = growth inhibition above about 70%; inactive = the rest.
Outcome codes: active, inactive

1. Cc1cc(N=O)c(NO)cc1C; inactive
2. Cn1cnc([N+](=O)[O-])c1Sc1ccc(Cl)cc1; inactive
3. O=C(C(=O)c1ccc(Cc2ccc(C(=O)C(=O)c3ccccc3)cc2)cc1)c1ccccc1; inactive
4. C=C1C(=O)[C@@]23CC[C@H]4[C@@](C)(CCC[C@@]4(C)C(=O)OC)[C@@H]2CC[C@]1(O)C3; active
5. CCc1cccc(CC)c1N=Nc1c(N)nc(N)[nH]c1=O; inactive
6. O=C1C=C(O)c2cc(Br)ccc2C1=O.[Ag]; active
7. CCCOC1=C(Cl)C(=O)c2cccc([N+](=O)[O-])c2C1=O; active
8. Cc1cccc[c]1[Sn]([Cl])([O][Sn]([Cl])([c]1ccccc1C)[c]1ccccc1C)[c]1ccccc1C; active
9. CN(C)c1ccc(N=Nc2ccc(/C=C3\CCOC3=O)cc2)cc1; inactive
10. COc1ccc(-c2nc3c(C(=O)NCCN(C)C)cccc3c3ccccc23)cc1; inactive
11. CCCCc1ccc2c(c1)Nc1cc3ccccc3cc1N2; inactive

###

assay: NCI Yeast Anticancer Drug Screen. Data for the mec2-1 strain (AID 157); settings: S. cerevisiae mec2-1 strain, at 5.0 µM (retest, dose inferred, filed as 0.5), hits give high values
Compounds without any hit were thinned out: in the full panel of roughly 79,000, 15% have a hit.
Listing of entries alongside the reported growth inhibition.
Observed property: growth inhibition (%)

1) O=S(=O)(O)c1ccc2c(c1)C1C(C3C2C2(Cl)C(Cl)=C(Cl)C3(Cl)C2(Cl)Cl)C2(Cl)C(Cl)=C(Cl)C1(Cl)C2(Cl)Cl (stereo not drawn); -8
2) CC(=O)C(C=O)C(C)=O.CC(=O)CC(C)=O.CC(=O)CC(C)=O.[Ru]; 60
3) Cc1n(CC(C)C)c2c([n+]1CC(=O)c1ccc([N+](=O)[O-])cc1)C(=O)c1ccccc1C2=O; 25
4) Nc1ccc(-c2nc3ccccc3s2)cc1; 2
5) CN(C)CCN(C)N=Nc1c(-c2cccs2)n[nH]c1C(F)(F)F; 99
6) COc1cc(OC)c(C(c2cc3c(cc2O)OCO3)N2CCOCC2)c(OC)c1 (stereo not drawn); 2
7) CCC(C)OC(=O)Nc1cccc(Cl)c1 (stereo not drawn); -7
8) COC(=O)c1ccc(C)cc1C1CN=NC12Cc1cc(C)ccc1C2=O (stereo not drawn); 8
9) Clc1cccc(C2SCc3nc4ccccc4n32)c1Cl (stereo not drawn); -3
10) Cc1ccccc1NC(=S)N/N=C(/c1ccccc1)c1ccccn1; -17
11) Oc1ccc(N=Nc2ccc(Cl)cc2)cc1O; -8
12) O=C(Cc1nc2ccccc2s1)C(=O)Nc1ccc(Cl)cc1; -1
13) CC[N-]c1nncs1.CC[N-]c1nncs1.CC[N-]c1nncs1.CC[N-]c1nncs1.[Cl][Rh][Cl]; 43
14) C=CCOC(=O)CC(O)C(=O)OCC=C (stereo not drawn); 4
15) Oc1ccc(C23CC4CC(CC(C4)C2)C3)cc1; -50
16) Cc1cc(-c2ccccc2)c(C)c(-c2ccccc2)c1-c1ccccc1; 0
17) Cc1ccc(NC(=O)Cc2nc3ccccc3s2)c(C)c1; 9
18) OC1(c2ccccc2)c2ccccc2Sc2ccccc21; 6
19) Cc1ccc(O)c(C(c2cc(C)ccc2O)c2ccccc2Cl)c1; 95
20) C#CC(O)c1ccc(Cl)cc1Cl (stereo not drawn); -2
21) ClCc1ccccc1Cc1ccccc1; 21
22) Cc1c(N2CCCC2)cc2c(c1NC(=O)c1ccccc1Cl)C(C)(C)CC2(C)C; -2
23) CCc1c(C(=O)OC)c(C(=O)OC)c(-c2ccccc2)n1CCn1c(CC)c(C(=O)OC)c(C(=O)OC)c1-c1ccccc1; -2
